# Test system: FLK-1 receptor
# protocolSummary: FLK-1 Assay (cellular/catalytic ELISA, VEGF-stimulated phosphotyrosine)
# Format: cell-based
# Design: concentration or dose not given beside the values
measuredEndpoint: Flk Kinase % Inhibition (P.110) (%)
I only need the number, in %, no unit after it.

molecule | Flk Kinase % Inhibition (P.110) / %
CNS(=O)(=O)c1ccc2c(c1)C(=Cc1ccc(Cl)cc1)C(=O)N2 | 5.8
COc1cccc(C=C2C(=O)Nc3ccc(I)cc32)c1 | 2.5
COc1cccc(O)c1C=C1C(=O)Nc2c(Br)cc(Br)c(C)c21 | −5.0
Cc1c(Br)cc(Br)c2c1C(=Cc1cccc3ccccc13)C(=O)N2 | 20.6
Cc1c(Br)ccc2c1C(=Cc1cccc(F)c1)C(=O)N2 | 4.4
COc1ccc(OC)c(C=C2C(=O)Nc3c(Br)cc(Br)c(C)c32)c1 | −13.3
O=C1Nc2c(Br)cc(Br)cc2C1=Cc1cc(Br)cc(Br)c1O | −9.4
Cc1c(Br)cc(Br)c2c1C(=Cc1cc(Cl)c(OCc3ccccc3)c(C(C)(C)C)c1)C(=O)N2 | 3.3
COc1ccc(Br)c(C=C2C(=O)Nc3c(Br)cc(Br)c(C)c32)c1O | −5.8
O=C1Nc2c(Br)cc(Br)cc2C1=Cc1ccc([N+](=O)[O-])cc1 | −6.4

I would be grateful if you could share the reported Flk Kinase % Inhibition (P.110) for CCc1ccc(C=C2C(=O)Nc3ccc(S(=O)(=O)NC)cc32)cc1 .
8.5

Can you share its Flk Kinase % Inhibition (P.110)? I mean this molecule: O=C1Nc2c(Br)cc(Br)cc2C1=Cc1ccc(F)c(F)c1
−1.0

What does the data say about its Flk Kinase % Inhibition (P.110)? Entry: Cc1c(Br)cc(Br)c2c1C(=CC1C=CCCC1)C(=O)N2 (stereo not shown)
8.9

What does the data say about its Flk Kinase % Inhibition (P.110)? Entry: CNS(=O)(=O)c1ccc2c(c1)C(=Cc1ccccc1Cl)C(=O)N2
12.5

Report Flk Kinase % Inhibition (P.110) for Cc1ccc2occ(C=C3C(=O)Nc4c(Br)cc(Br)c(C)c43)c(=O)c2c1 please.
28.7

Quick one: Flk Kinase % Inhibition (P.110) for CCOc1cccc(C=C2C(=O)Nc3ccc(I)cc32)c1O ?
8.5

---

# assaySystem: EGFR (Homo sapiens, UniProt P00533)
# Construct: endogenous in cells; host or cells: A431 cells (lysate, captured with SUMO1 anti-EGFR antibody)
# Sequence (P00533 25-1210): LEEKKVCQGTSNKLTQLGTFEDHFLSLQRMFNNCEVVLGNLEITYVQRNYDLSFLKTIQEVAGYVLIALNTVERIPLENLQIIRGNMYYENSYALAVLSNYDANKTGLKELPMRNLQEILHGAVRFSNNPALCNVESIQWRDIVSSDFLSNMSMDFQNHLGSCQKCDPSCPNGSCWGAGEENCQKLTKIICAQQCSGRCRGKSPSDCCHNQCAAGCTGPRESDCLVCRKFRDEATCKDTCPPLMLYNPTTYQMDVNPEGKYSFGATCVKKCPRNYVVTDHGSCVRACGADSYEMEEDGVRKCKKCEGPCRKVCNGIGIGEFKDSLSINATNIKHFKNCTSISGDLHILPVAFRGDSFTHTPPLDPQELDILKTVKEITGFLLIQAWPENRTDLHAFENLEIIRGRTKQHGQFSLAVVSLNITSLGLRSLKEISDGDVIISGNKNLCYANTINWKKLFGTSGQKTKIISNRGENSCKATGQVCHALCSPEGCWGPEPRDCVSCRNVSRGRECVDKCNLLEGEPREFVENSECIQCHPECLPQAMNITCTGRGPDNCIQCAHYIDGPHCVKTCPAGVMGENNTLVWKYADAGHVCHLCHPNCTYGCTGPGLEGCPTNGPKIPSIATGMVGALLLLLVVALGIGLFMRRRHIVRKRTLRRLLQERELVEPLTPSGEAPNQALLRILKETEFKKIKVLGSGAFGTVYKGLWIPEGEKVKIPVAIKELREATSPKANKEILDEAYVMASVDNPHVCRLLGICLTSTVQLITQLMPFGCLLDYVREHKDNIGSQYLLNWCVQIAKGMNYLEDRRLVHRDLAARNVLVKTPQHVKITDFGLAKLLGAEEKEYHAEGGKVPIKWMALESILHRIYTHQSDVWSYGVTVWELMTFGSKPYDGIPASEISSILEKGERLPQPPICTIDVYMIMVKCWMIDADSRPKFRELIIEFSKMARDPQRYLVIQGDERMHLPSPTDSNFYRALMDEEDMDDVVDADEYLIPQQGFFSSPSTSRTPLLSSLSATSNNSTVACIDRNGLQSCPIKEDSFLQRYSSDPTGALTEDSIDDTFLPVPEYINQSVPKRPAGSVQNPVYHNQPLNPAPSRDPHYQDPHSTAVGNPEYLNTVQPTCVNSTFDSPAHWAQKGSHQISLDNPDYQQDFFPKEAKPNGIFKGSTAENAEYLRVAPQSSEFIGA
# protocolSummary: Biochemical EGFR Assay
# Parameters: concentration or dose not given beside the values
# measurementSetup: protocol P.167
measuredEndpoint: Biochem EGFR % Inhibition (P.167) (%)
Give a bare numeral; the unit % is implied.

Take a look at these entries with their results.
givenSmiles | assaySystem | unitOfMeasure | Biochem EGFR % Inhibition (P.167)
COc1ccccc1C=C1C(=O)Nc2c(Br)cc(Br)cc21 | EGFR (Homo sapiens, UniProt P00533) | % | 17.0
O=C1Nc2ccc(S(=O)(=O)N3CCOCC3)cc2C1=Cc1cccc(Oc2cccc(C(F)(F)F)c2)c1 | EGFR (Homo sapiens, UniProt P00533) | % | −0.7

Query (compound): CCCOc1ccc(C=C2C(=O)Nc3ccc(S(=O)(=O)N4CCOCC4)cc32)cc1 ; field requested: Biochem EGFR % Inhibition (P.167)
−14.8

Please give the measured Biochem EGFR % Inhibition (P.167) for this compound: COc1ccccc1C=C1C(=O)Nc2ccc(S(=O)(=O)N3CCOCC3)cc21
0.1

Look up Biochem EGFR % Inhibition (P.167): Cc1c(Br)cc(Br)c2c1C(=Cc1ccc(Oc3ccccc3)cc1)C(=O)N2
−15.9

# lookup: Biochem EGFR % Inhibition (P.167) of O=C1Nc2ccc(CCCl)cc2C1=Cc1ccc(CO)o1
−23.2

# Biochem EGFR % Inhibition (P.167) lookup, item CNS(=O)(=O)c1ccc2c(c1)C(=Cc1cccc(Oc3ccc(C(C)(C)C)cc3)c1)C(=O)N2
−15.0

Fill blank: measured Biochem EGFR % Inhibition (P.167) of the compound O=C1Nc2ccc(CCCl)cc2C1=Cc1cccc(OCc2ccccc2)c1 is ____.
2.4
